- Study System: PfENT1 F36S (Plasmodium falciparum, UniProt Q8IDM6, F36S)
- Sequence (Q8IDM6 1-422 F36S): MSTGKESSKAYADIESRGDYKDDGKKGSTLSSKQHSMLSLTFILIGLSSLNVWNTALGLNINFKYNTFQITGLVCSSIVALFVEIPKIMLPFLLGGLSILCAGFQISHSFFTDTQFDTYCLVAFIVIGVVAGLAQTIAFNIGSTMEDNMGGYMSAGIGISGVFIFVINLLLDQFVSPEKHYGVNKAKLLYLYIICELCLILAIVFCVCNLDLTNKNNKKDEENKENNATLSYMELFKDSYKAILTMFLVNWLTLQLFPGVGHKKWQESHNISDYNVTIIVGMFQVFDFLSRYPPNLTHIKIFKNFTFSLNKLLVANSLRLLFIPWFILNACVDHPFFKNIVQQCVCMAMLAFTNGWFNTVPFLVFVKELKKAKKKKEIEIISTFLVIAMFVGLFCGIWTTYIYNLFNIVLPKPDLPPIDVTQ
- Assay Name: [3H]uridine uptake inhibition by purines in PfENT1-SNP-expressing yeast
Entries and their IC50 values follow.
Measured Property: IC50

In [3]: df
Out[3]:
                              sample_smiles  value_reported
0  OC[C@H]1O[C@@H](n2cnc3c(O)ncnc32)[C@H](O)[C@@H]1O           24 µM
1                     O=c1[nH]cnc2nc[nH]c12          171 µM
2                         Nc1ncnc2nc[nH]c12          292 µM
